Here, each record is paired with measured pEC50 data.
Test System: hGIPR (Homo sapiens, UniProt P48546)
Sequence (P48546 22-466): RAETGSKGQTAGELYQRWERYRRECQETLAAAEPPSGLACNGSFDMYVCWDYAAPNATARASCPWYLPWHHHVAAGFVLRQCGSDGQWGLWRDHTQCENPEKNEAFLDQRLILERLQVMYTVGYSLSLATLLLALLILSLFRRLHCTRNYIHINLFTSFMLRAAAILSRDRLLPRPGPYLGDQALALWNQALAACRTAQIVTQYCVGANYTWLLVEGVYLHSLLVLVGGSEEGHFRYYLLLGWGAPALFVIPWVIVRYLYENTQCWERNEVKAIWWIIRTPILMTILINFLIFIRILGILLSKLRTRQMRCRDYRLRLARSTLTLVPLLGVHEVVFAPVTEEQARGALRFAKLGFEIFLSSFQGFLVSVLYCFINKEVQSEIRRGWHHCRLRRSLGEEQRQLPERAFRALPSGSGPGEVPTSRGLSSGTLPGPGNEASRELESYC
Test Summary: Functional cAMP activation in the presence of 0.1% casein (no HSA);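 note: intracellular cAMP rise after 30 min at 37 °C read by HTRF against a standard curve, scaled between buffer alone (0%) and top control ligand concentration (100%), four-parameter fit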
Type: cell-based
Test Conditions: in the presence of 0.1% casein (no HSA); geometric mean; read-out: Relative cAMP EC50, hGIPR
Starred links: 1 amine or outer side, 2 acyl side, 3 side chain; linkers in the order of their positions; H or OH if unused. Non-standard residues stand in square brackets, D forms with d. Groups on a side chain read outwards from the residue. No end group written: not given here. *: point of attachment. C20 diacid = O=C(O)CCCCCCCCCCCCCCCCCCC(=O)*; C18 diacid = O=C(O)CCCCCCCCCCCCCCCCC(=O)*; γGlu = O=C(O)[C@H](CCC(=O)[*:2])N[*:1]; αMe4Pal = C[C@](N)(Cc1ccncc1)C(=O)O; αMeY = C[C@](N)(Cc1ccc(O)cc1)C(=O)O; 4Pal = N[C@@H](Cc1ccncc1)C(=O)O; αMeL = CC(C)C[C@](C)(N)C(=O)O; Orn = NCCC[C@H](N)C(=O)O; AEEA = NCCOCCOCC(=O)O; Aib = CC(C)(N)C(=O)O
Scale for pEC50: -log10 of concentration given in mol/L; no unit attached.

Take a look at these entries with their results.
H-Y[Aib]QGTFTSDFS[Orn][αMeL]LDKK([AEEA-γGlu-C18 diacid])AQ[Aib]AFIEYLLEGGPSSGAPPPEGS-NH2 [Example 130]; 9.39
H-Y[Aib]QGTFTSDFS[Orn][αMeL]LDKK([AEEA-γGlu-C18 diacid])AQ[Aib]AFIEYLLEGGPSSGAPPPGGSE-NH2 [Example 65]; 9.13
H-Y[Aib]QGTFTSDFS[Orn][αMeL]LDKK([AEEA-γGlu-C20 diacid])AQ[Aib]AFIEWLLEGGPSSGAPPPEGE-NH2 [Example 101]; 9.36
Y[Aib]QGTFTSD[4Pal]S[Orn][αMeL]LD[Orn]K([γGlu-γGlu-C18 diacid])AQ[αMe4Pal]QFIE[αMeY]LIEGGPSSGAPPPSGSEE-NH2 [Example 972]; 9.47

Attention now turns to another entry.
Endpoint output: pEC50 of H-Y[Aib]QGTFTSDFS[Orn][αMeL]LDKK([AEEA-γGlu-C18 diacid])AQ[Aib]AFIEWLLEGGPSSGAPPPEGS-NH2 [Example 121] . Value?
9.76
